Protocol description: solvent given as SMILES
Conditions used: in CCCCCO
Quick rule for you: fluorescence lifetime at 0.7 ns or higher means 1 (yes), lower means 0 (no).

Solved entries:
## Input Could you please find out whether ClC(Cl)=C1c2ccccc2C(C2(Cl)c3ccccc3C(=C(Cl)Cl)c3ccccc32)c2ccccc21 (stereo not drawn) has fluorescence lifetime that meets 0.7 ns or exceeds it?
## Output 1 (yes)

## Input Next entry: COC(=O)C(Cc1ccc2oc(-c3ccc(-n4c5ccccc5c5ccccc54)cc3)nc2c1)NC(=O)OC(C)(C)C (stereo not drawn)
## Output 1 (yes)

## Input Next entry: `CN1CCN(c2ccc3c4c(cccc24)C(=O)c2ccccc2-3)CC1`
## Output 1 (yes)

## Input Next entry: `COc1ccc(C(=O)NN2C3=C(CC4=C2CCCC4=O)C(=O)CCC3)cc1`
## Output 1 (yes)

## Input Next entry: `CCN(CC)c1ccc2nc3c4ccccc4c(=O)cc-3oc2c1`
## Output 1 (yes)

---
## Input Could you please find out whether `O=C1c2ccccc2-c2ccc(N3CCN(c4ccccc4)CC3)c3cccc1c23` has fluorescence lifetime that meets 0.7 ns or exceeds it?
## Output 0 (no)
